activation values by entry
Procedure Summary: qHTS of IL-2 Activators; note: 0% is about no effect
Conditions Used: IL-2 activation reporter assay, cell-based qHTS; stronger effect = higher value; in transgenic mouse T cells; stimulated with anti-CD3/CD4/CD28 beads
Among all 360,000 compounds or so, about 240 (0.067%) were called active. Only a selection was taken, and actives are over-represented in it overall.

Compound: [O-][n+]1c2c(nn1-c1ccc(Cl)c(Cl)c1)-c1nonc1CC2
activation / %: 0.19
//
Compound: CN1CCN(C2Cc3ccc(Cl)cc3Sc3ccc(F)cc32)CC1 (stereo unspecified)
activation / %: -2.1
//
Compound: O=c1nc(NO)ccn1C1CCCO1 (stereo unspecified)
activation / %: -4.07
//
Compound: COc1ccc(NC(=O)/C(N=Nc2cccc(S(=O)(=O)Nc3ccc(SC(F)F)cc3)c2)=C(\C)O)cc1
activation / %: 0.0635
//
Compound: O=S(=O)(Nc1nccs1)c1ccc2c(c1)OCCO2
activation / %: -0.72
//
Compound: CCOC(=O)C1C(=O)OC2(CCCC2)C1C(=O)OCC (stereo unspecified)
activation / %: -0.195

###

activation values by entry
Procedure Summary: qHTS of IL-2 Activators; note: 0% is about no effect
Conditions Used: IL-2 activation reporter assay, cell-based qHTS; stronger effect = higher value; in transgenic mouse T cells; stimulated with anti-CD3/CD4/CD28 beads
Among all 360,000 compounds or so, about 240 (0.067%) were called active. The list comes from a sample in which actives are over-represented; it also holds close analogues and randomly drawn compounds.
Readout Kind: activation (%)

Molecule: CN1CCC(N(C)S(=O)(=O)c2ccc(NC(=O)c3cccc(C#N)c3)cc2)CC1
Value Reported: 0.319
--
Molecule: CCN1/C(=C\c2ccc3ccccc3[n+]2CC)Sc2cc(C)ccc21
Value Reported: 83.8
--
Molecule: O=C(CCN1C(=O)c2ccccc2C1=O)NNC(=O)c1ccc(Cl)cc1Cl
Value Reported: 0.499
--
Molecule: O=C1/C(=C/c2cccs2)SC(=S)N1C1CCS(=O)(=O)C1 (stereo not given)
Value Reported: 2.78
--
Molecule: O=C(CCN1C(=O)/C(=C/c2cccs2)SC1=S)NNC(=O)c1cccc(O)c1
Value Reported: 133

###

activation values by entry
Procedure Summary: qHTS of IL-2 Activators; note: 0% is about no effect
Conditions Used: IL-2 activation reporter assay, cell-based qHTS; stronger effect = higher value; in transgenic mouse T cells; stimulated with anti-CD3/CD4/CD28 beads
Out of some 360,000 compounds screened, about 240 (0.067%) were called active. The sample as a whole holds a higher share of actives than the screen did.
Readout Kind: activation (%)

Compound: CCCc1nc(SCC(=O)Nc2ccc(S(=O)(=O)N(C)C)cc2)c2ccccc2n1
Readout Kind: activation
Value Reported: -0.583
//
Compound: Cc1cc2cc3c(N)[nH]nc3nc2cc1C
Readout Kind: activation
Value Reported: -0.975
//
Compound: CC(C)CN1C(=O)CN(S(C)(=O)=O)CC1(C)C(=O)NCc1ccccc1 (stereo not given)
Readout Kind: activation
Value Reported: -0.324
//
Compound: O=C(CCS(=O)(=O)c1ccc2c(c1)NC(=O)CS2)NCc1ccccc1Cl
Readout Kind: activation
Value Reported: -0.54
//
Compound: O=C1C[C@@H]2c3c(cccc3CN1Cc1ccccc1)C[C@@H](O)[C@H]2O
Readout Kind: activation
Value Reported: 0.126
//
Compound: Cc1c(C(=O)OCC(=O)N2CCCC2=O)oc2ccccc12
Readout Kind: activation
Value Reported: -1.29
//
Compound: CCOC(=O)N1CCN(C(c2ccnc3ccccc23)c2nnnn2-c2c(C)cccc2C)CC1 (stereo not given)
Readout Kind: activation
Value Reported: -1.14
//
Compound: COc1ccc2nc(Nc3nc(-c4cc5ccccc5oc4=O)cs3)sc2c1
Readout Kind: activation
Value Reported: 57.4
//
Compound: Cc1ccc(C(CC(=O)O)NC(=O)c2ccc(S(=O)(=O)N3CCCC3)cc2)cc1 (stereo not given)
Readout Kind: activation
Value Reported: 0.29
//
Compound: Cc1c2cn[nH]c(=O)c2c(C)n1Cc1ccc(F)cc1
Readout Kind: activation
Value Reported: -0.791
//
Compound: OCC1(CO)CC2(C1)CC(CO)(CO)C2
Readout Kind: activation
Value Reported: 0.276
//
Compound: CC(=O)N1CC[n+]2c(-c3ccc([N+](=O)[O-])cc3)csc21
Readout Kind: activation
Value Reported: -2.73
//
Compound: CC(=O)Nc1ccc(C(=O)Nc2cc(S(=O)(=O)N3CCOCC3)ccc2N2CCOCC2)cc1
Readout Kind: activation
Value Reported: -2.32
//
Compound: CN1CCN(c2ccc3c(c2)OC[C@H](Cc2ccccc2)NS3(=O)=O)CC1
Readout Kind: activation
Value Reported: 1.2
//
Compound: Cc1cccc(C(=O)O)c1[N+](=O)[O-]
Readout Kind: activation
Value Reported: -0.181
//
Compound: CCOC(=O)N1CCN(C(=O)c2ccccc2SCC(=O)NCC2CCCCC2)CC1
Readout Kind: activation
Value Reported: -1.16
//
Compound: CCOc1cc(S(=O)(=O)NC2CC(C)(C)NC(C)(C)C2)ccc1F
Readout Kind: activation
Value Reported: 0.923
//
Compound: COc1ccc(N2CCN(C(=O)CCSCc3ccccc3F)CC2)cc1
Readout Kind: activation
Value Reported: 1.14
//
Compound: COC(=O)C1=C(N)Oc2c(oc(CO)cc2=O)C1c1c(F)cccc1Cl (stereo not given)
Readout Kind: activation
Value Reported: 1.1
//
Compound: COc1ccc(N2CCN(C3CCCCC3NS(=O)(=O)c3ccccc3)CC2)cc1 (stereo not given)
Readout Kind: activation
Value Reported: -5.42
//
Compound: CCCC1NC(=O)NC(C)=C1C(=O)OCC (stereo not given)
Readout Kind: activation
Value Reported: -3.34
//
Compound: COc1cccc(N2CCN(CC(=O)Nc3ccnn3C3CCCC3)CC2)c1
Readout Kind: activation
Value Reported: 0.356
//
Compound: COc1ccc(CNC(=O)CN2C(=O)NC3(CCCc4sccc43)C2=O)cc1 (stereo not given)
Readout Kind: activation
Value Reported: 1.66
//
Compound: COc1ccc(CCNC(=O)c2ccc(NC(=O)CC3SC(N4CCCCC4)=NC3=O)cc2)cc1OC (stereo not given)
Readout Kind: activation
Value Reported: 1.44
//
Compound: C[C@H]1COc2cc(N3CCSCC3)ccc2S(=O)(=O)N1
Readout Kind: activation
Value Reported: 0.723
//
Compound: Cn1c2ccc(F)cc2c2nnc(NN)nc21
Readout Kind: activation
Value Reported: 0.485
//
Compound: O=C1CCC(Cc2ccccc2)N1 (stereo not given)
Readout Kind: activation
Value Reported: -3.46
//
Compound: CC1CC(NC(=S)N(C)C)CC(C)(C)C1 (stereo not given)
Readout Kind: activation
Value Reported: -1.93
//
Compound: Cc1ccc(NC(=O)CSc2nc(=O)n(CCN(C)C)c3c2CCCC3)c(C)c1
Readout Kind: activation
Value Reported: 0.222
//
Compound: O=S(=O)(NCc1ccccc1Br)c1ccccc1Br
Readout Kind: activation
Value Reported: 0.131
//
Compound: CSc1nsc(SC)c1NC(=O)OC1CCCCC1
Readout Kind: activation
Value Reported: -1.77
//
Compound: CCCCN(C(=O)/C=C/c1ccco1)c1c(N)n(CC(C)C)c(=O)[nH]c1=O
Readout Kind: activation
Value Reported: 5.81
//
Compound: Cc1cc(C)n(CCNC(=O)CC2C(=O)NCCN2Cc2ccc(C)o2)n1 (stereo not given)
Readout Kind: activation
Value Reported: -0.111
//
Compound: CN(C)S(=O)(=O)c1ccc(N2CCCC2)c(C(=O)NCc2ccccc2)c1
Readout Kind: activation
Value Reported: 0.204
//
Compound: CCOC(=O)C1CCCN(S(=O)(=O)c2ccc3c(c2)C(C)(C)C(=O)N3C)C1 (stereo not given)
Readout Kind: activation
Value Reported: -2.21
//
Compound: Cc1cccc(N=Nc2c(O)[nH]c3ccc(F)cc23)c1
Readout Kind: activation
Value Reported: 137
//
Compound: CSCC[C@H](NC(=O)N1CCn2c1nc1ccccc12)C(=O)NCc1ccc2c(c1)OCO2
Readout Kind: activation
Value Reported: -1.15
//
Compound: CCCN(CC1CC1)C(=O)COC(=O)c1ccc(C)cc1O
Readout Kind: activation
Value Reported: -0.72
//
Compound: CC(C)OC(=O)Cn1nc(C(F)(F)F)c2c1CCCC2
Readout Kind: activation
Value Reported: 0.525
//
Compound: COc1ccccc1CNC(=O)C1CCCN(S(=O)(=O)c2cccc3cccnc23)C1 (stereo not given)
Readout Kind: activation
Value Reported: -1.32
//
Compound: COc1ccc(-c2ccc3[nH]c4c(c3c2)CCN2C[C@H]3[C@H](C)ON(C)[C@H]3C[C@@H]42)cc1
Readout Kind: activation
Value Reported: -3.69
//
Compound: O=C1Cc2ccccc2Sc2ccc(Cl)cc21
Readout Kind: activation
Value Reported: -0.448
//
Compound: O=C(O)C1C2C=CC(C2)C1C(=O)N1CCN(CCO)CC1 (stereo not given)
Readout Kind: activation
Value Reported: -0.292
//
Compound: Cc1ccc(CNC(=O)CSc2nnc3c(n2)[nH]c2ccc(F)cc23)cc1
Readout Kind: activation
Value Reported: -0.754
//
Compound: CCCn1c(C(Cc2ccccc2)NC(=O)COC)nc2ccccc21 (stereo not given)
Readout Kind: activation
Value Reported: 0.549
